- System: PBMC from healthy HCMV seropositive donors
- Assay details: IFN-γ ELISPOT assay
- Type: cell-based, human
- Assay context: donor epsilon; peptide 10 μg/ml
Label key: 1 (yes) means ELISPOT Responses (SFC/10^6 PBMC) under 200 SFC/10^6 PBMC; 0 (no) means ELISPOT Responses (SFC/10^6 PBMC) of 200 SFC/10^6 PBMC or more.

These recorded examples may help you get a feel for the data.
Polymer sequence	Label value
RVKIDEVSRMFRNTNRSLEY	0 (no)
VTTERKTPRVTGGGAMAGAS	0 (no)
QIKVRVDMV (human cytomegalovirus IE1 CTL epitope peptide)	0 (no)
PVDLLGALNLCLPLMQKFPK (human cytomegalovirus IE2 CTL epitope peptide)	1 (yes)
THQLCPRSSDYRNMIIHAAT (human cytomegalovirus IE2 CTL epitope peptide)	1 (yes)

stdin: For this sequence, is ELISPOT Responses (SFC/10^6 PBMC) lower than 200 SFC/10^6 PBMC? YRNMIIHAATPVDLLGALNL (human cytomegalovirus IE2 CTL epitope peptide)
stdout: 0 (no)

====

- Test system: HLA B7 (Homo sapiens, UniProt P01889)
- Construct: expressed in transfected cells; host or cells: T2 cells
- Sequence (P01889 25-362): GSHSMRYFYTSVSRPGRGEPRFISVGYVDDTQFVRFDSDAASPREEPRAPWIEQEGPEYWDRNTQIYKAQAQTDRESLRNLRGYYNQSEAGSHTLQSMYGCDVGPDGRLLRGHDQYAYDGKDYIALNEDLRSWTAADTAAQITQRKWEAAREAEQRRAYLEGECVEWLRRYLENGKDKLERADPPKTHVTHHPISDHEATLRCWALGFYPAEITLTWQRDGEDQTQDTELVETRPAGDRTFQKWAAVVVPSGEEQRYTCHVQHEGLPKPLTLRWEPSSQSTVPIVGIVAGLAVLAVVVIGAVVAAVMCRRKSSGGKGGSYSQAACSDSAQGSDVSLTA
- Sequence (P61769 21-119, further chain): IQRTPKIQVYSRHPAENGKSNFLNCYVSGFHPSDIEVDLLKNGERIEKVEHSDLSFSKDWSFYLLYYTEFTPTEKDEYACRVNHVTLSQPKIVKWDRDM
- Format: cell-based
- Assay context: HLA B7 on transfected T2 cells; relative increase vs no peptide at 26° C.
Result type: MSE (MHC stabilization efficiency)

Past entries and their recorded results:
Polymer sequence	MSE (MHC stabilization efficiency)
TPMLLIFGHL (human cytomegalovirus gH CTL epitope peptide)	++ (++ = 100-199%)
KARDHLAVL (human cytomegalovirus pp150 CTL epitope peptide)	+++ (+++ = 200-300%)
TPRVYYQTL (human cytomegalovirus US11 CTL epitope peptide)	+++ (+++ = 200-300%)
APYQRDNFIL (human cytomegalovirus gH CTL epitope peptide)	+++ (+++ = 200-300%)
NVRRSWEEL (human cytomegalovirus pp150 CTL epitope peptide)	++ (++ = 100-199%)
WPRERAWAL (human cytomegalovirus pp150 CTL epitope peptide)	+++ (+++ = 200-300%)
FPDLFCLPL (human cytomegalovirus gH CTL epitope peptide)	+++ (+++ = 200-300%)

--- query ---
stdin: Return MSE (MHC stabilization efficiency) measured with HLA B7 (Homo sapiens, UniProt P01889) given this sequence: SPRTHYLML (human cytomegalovirus gH CTL epitope peptide)
stdout: +++ (+++ = 200-300%)

====

- Test system: HLA A3 (Homo sapiens, UniProt P04439)
- Construct: EGFP; expressed in transfected cells; host or cells: T2 cells
- Sequence (P04439 25-365): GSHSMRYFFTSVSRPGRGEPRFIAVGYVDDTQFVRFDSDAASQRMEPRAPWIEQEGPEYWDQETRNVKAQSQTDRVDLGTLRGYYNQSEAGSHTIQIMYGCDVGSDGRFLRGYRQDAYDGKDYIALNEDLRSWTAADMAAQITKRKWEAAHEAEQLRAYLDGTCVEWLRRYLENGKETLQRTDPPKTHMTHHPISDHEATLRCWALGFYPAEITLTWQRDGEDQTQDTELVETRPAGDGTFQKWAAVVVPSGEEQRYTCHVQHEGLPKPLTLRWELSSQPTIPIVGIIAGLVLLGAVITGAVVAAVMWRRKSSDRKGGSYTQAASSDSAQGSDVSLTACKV
- Sequence (P61769 21-119, further chain): as the sequence (P61769 21-119, further chain) above
- Assay details: MHC stabilization assay on T2 cells
- Type: cell-based
- Assay context: HLA A3 on transfected T2 cells; relative increase vs no peptide at 26° C.

Polymer sequence	Test system	MSE (MHC stabilization efficiency)
KMTATFLSK (human cytomegalovirus gB CTL epitope peptide)	HLA A3 (Homo sapiens, UniProt P04439)	+++ (+++ = 200-300%)
LVRLVYILSK (human cytomegalovirus gH CTL epitope peptide)	HLA A3 (Homo sapiens, UniProt P04439)	+++ (+++ = 200-300%)
KLGGALQAK (human cytomegalovirus IE1 CTL epitope peptide)	HLA A3 (Homo sapiens, UniProt P04439)	+++ (+++ = 200-300%)
